target: CYP3A4 (Homo sapiens, UniProt P08684)
Sequence (P08684 whole entry): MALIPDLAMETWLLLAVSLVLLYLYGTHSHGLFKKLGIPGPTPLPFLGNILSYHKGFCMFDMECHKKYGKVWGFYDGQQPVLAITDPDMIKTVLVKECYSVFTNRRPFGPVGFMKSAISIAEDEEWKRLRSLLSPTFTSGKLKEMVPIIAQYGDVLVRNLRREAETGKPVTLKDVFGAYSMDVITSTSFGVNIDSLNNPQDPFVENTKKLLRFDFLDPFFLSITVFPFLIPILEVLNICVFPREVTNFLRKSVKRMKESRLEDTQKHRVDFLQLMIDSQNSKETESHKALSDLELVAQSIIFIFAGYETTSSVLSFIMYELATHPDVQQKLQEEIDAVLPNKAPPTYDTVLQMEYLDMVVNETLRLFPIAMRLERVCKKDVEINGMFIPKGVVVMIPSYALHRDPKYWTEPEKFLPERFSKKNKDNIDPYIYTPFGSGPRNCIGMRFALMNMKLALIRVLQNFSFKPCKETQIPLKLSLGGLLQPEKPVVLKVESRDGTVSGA
run description: Cytochrome P450 (CYP450) Inhibition Assay, CYP3A4 (Vivid fluorescence, BOMCC substrate)
applied conditions: human, P450 Baculosomes (recombinant CYP3A4), probe BOMCC (Vivid substrate)
Provide the recorded inhibition at 10 µM for the entries that follow.

Fill in the blank: the reported inhibition at 10 µM of CN1C(=O)C2(COc3cc4c(cc32)OCCO4)c2c(C#N)cccc21 (centres unmarked) [Example 16.71] is ____. < 50%

Fill in the blank: the reported inhibition at 10 µM of CN1C(=O)C2(COc3cc4c(cc32)OCCO4)c2c(-c3cc[nH]n3)cccc21 (centres unmarked) [Example 16.67] is ____. > 50%

Fill in the blank: the reported inhibition at 10 µM of O=C1N(Cc2ccc(C(F)(F)F)o2)c2cccc(Cl)c2C12COc1cc3c(cc12)OCO3 (centres unmarked) [Example 4.90] is ____. > 50%

Fill in the blank: the reported inhibition at 10 µM of CN1C(=O)COc2cc3c(cc21)C1(CO3)C(=O)Nc2ccccc21 (centres unmarked) [Example 3.22] is ____. < 50%

Fill in the blank: the reported inhibition at 10 µM of Cn1c(=O)oc2cc3c(cc21)OCC31C(=O)N(C(c2ccccc2)c2ccccc2)c2ccccc21 (centres unmarked) [Example 2.16] is ____. < 50%

Fill in the blank: the reported inhibition at 10 µM of COc1cc2c(cc1F)OCC21C(=O)N(Cc2ccc(C(F)(F)F)o2)c2ccccc21 (centres unmarked) [Example 4.83] is ____. > 50%

Fill in the blank: the reported inhibition at 10 µM of CNC(=O)c1ccc(CN2C(=O)C3(COc4cc5c(cc43)CCO5)c3ccccc32)o1 (centres unmarked) [Example 13.2] is ____. > 50%

Fill in the blank: the reported inhibition at 10 µM of CCCCCCNC(=O)Nc1cccc2c1C1(COc3cc4c(cc31)OCCO4)C(=O)N2C (centres unmarked) [Example 16.35] is ____. > 50%

Fill in the blank: the reported inhibition at 10 µM of O=C1N(C[C@H]2CCCO2)c2ccccc2C12COc1cc3c(cc12)COCO3 (some centres unmarked) [Example 2.31] is ____. > 50%

Fill in the blank: the reported inhibition at 10 µM of CCc1ccccc1NC(=O)c1ccc(CN2C(=O)C3(COc4cc5c(cc43)CCO5)c3ccccc32)cc1 (centres unmarked) [Example 12.34] is ____. > 50%

Fill in the blank: the reported inhibition at 10 µM of Cc1nc2cc3c(cc2s1)C1(CO3)C(=O)Nc2ccccc21 (centres unmarked) [Example 1] is ____. < 50%

Fill in the blank: the reported inhibition at 10 µM of O=C1N(Cc2ccc(C(F)(F)F)o2)c2ccccc2C12COc1cc(F)c(F)cc12 (centres unmarked) [Example 9.32] is ____. > 50%

Fill in the blank: the reported inhibition at 10 µM of Nc1noc2cc3c(cc12)C1(CO3)C(=O)N(Cc2ccccn2)c2ccccc21 (centres unmarked) [Example 44.1] is ____. < 50%

Fill in the blank: the reported inhibition at 10 µM of CN1C(=O)[C@]2(COc3cc4c(cc32)OCO4)c2c(-c3ccoc3)cccc21 [Example 16.62] is ____. > 50%

Fill in the blank: the reported inhibition at 10 µM of Cn1nnc2cc(CN3C(=O)C4(COc5cc6c(cc54)OCCO6)c4ccccc43)ccc21 (centres unmarked) [Example 7.23] is ____. < 50%

Fill in the blank: the reported inhibition at 10 µM of COc1ccc(CN2C(=O)C3(COc4cc(O)c(C#N)cc43)c3ccccc32)cc1 (centres unmarked) [Example 2.39] is ____. > 50%

Fill in the blank: the reported inhibition at 10 µM of COc1ccc(CCNC(=O)c2ccccc2CN2C(=O)C3(COc4cc5c(cc43)CCO5)c3ccccc32)cc1 (centres unmarked) [Example 12.22] is ____. > 50%

Fill in the blank: the reported inhibition at 10 µM of O=C1N(Cc2ccc3c(c2)OCCO3)c2ccccc2C12COc1cc3c(cc12)OCCO3 (centres unmarked) [Example 4.48] is ____. < 50%

Fill in the blank: the reported inhibition at 10 µM of COC(=O)c1coc(CN2C(=O)C3(COc4cc5c(cc43)CCO5)c3ccccc32)n1 (centres unmarked) [Example 4.11] is ____. < 50%

Fill in the blank: the reported inhibition at 10 µM of O=C1N(Cc2ncccc2C(F)(F)F)c2ccccc2C12COc1cc3c(cc12)OC(F)(F)O3 (centres unmarked) [Example 2.36] is ____. < 50%

Fill in the blank: the reported inhibition at 10 µM of Cc1nc(-c2ccc(CN3C(=O)C4(COc5cc6c(cc54)OCCO6)c4ccccc43)cc2)no1 (centres unmarked) [Example 11.84] is ____. < 50%

Fill in the blank: the reported inhibition at 10 µM of CC(C)CCN1C(=O)C2(COc3cc4c(cc32)CCO4)c2ccccc21 (centres unmarked) [Example 4.4] is ____. > 50%

Fill in the blank: the reported inhibition at 10 µM of CN1C(=O)C2(COc3cc4c(cc32)OCCO4)c2c(-c3csc(N)n3)cccc21 (centres unmarked) [Example 26] is ____. > 50%

Fill in the blank: the reported inhibition at 10 µM of COc1ccc(CN2C(=O)C3(COc4cc5c(cc43)OCCO5)c3c2ccc2ncsc32)cc1 (centres unmarked) [Example 2.66] is ____. > 50%

Fill in the blank: the reported inhibition at 10 µM of Cc1cccc(C)c1NC(=O)c1ccc(CN2C(=O)C3(COc4cc5c(cc43)CCO5)c3ccccc32)cc1 (centres unmarked) [Example 12.35] is ____. > 50%

Fill in the blank: the reported inhibition at 10 µM of O=C(Nc1ccccc1C(F)(F)F)c1ccc(CN2C(=O)C3(COc4cc5c(cc43)CCO5)c3ccccc32)cc1 (centres unmarked) [Example 12.26] is ____. > 50%

Fill in the blank: the reported inhibition at 10 µM of CN1C(=O)C2(COc3cc4c(cc32)OCCO4)c2c(NC(=O)NC3CCCC3)cccc21 (centres unmarked) [Example 16.36] is ____. < 50%

Fill in the blank: the reported inhibition at 10 µM of CC(C)c1cc(CN2C(=O)C3(COc4cc5c(cc43)OCO5)c3ccccc32)on1 (centres unmarked) [Example 1.6] is ____. > 50%

Fill in the blank: the reported inhibition at 10 µM of CC(C)c1nc(CN2C(=O)C3(COc4cc5c(cc43)OCO5)c3cccc(C#N)c32)cs1 (centres unmarked) [Example 4.88] is ____. > 50%

Fill in the blank: the reported inhibition at 10 µM of O=C1Nc2ccccc2C12COc1cc3c(cc12)OCCCO3 (centres unmarked) [Example 3.11] is ____. < 50%

Fill in the blank: the reported inhibition at 10 µM of O=C1N(Cc2nccnc2C(F)(F)F)c2ccccc2C12COc1cc3c(cc12)OCCO3 (centres unmarked) [Example 5.11] is ____. < 50%

Fill in the blank: the reported inhibition at 10 µM of CN1C(=O)C2(COc3cc4c(cc32)OCCO4)c2c(C(=O)Oc3ccccc3)cccc21 (centres unmarked) [Example 2.53] is ____. > 50%

---

target: CYP3A4 (Homo sapiens, UniProt P08684)
run description: Cytochrome P450 (CYP450) Inhibition Assay, CYP3A4 (Vivid fluorescence, BOMCC substrate)
applied conditions: human, P450 Baculosomes (recombinant CYP3A4), probe BOMCC (Vivid substrate)
Provide the recorded inhibition at 10 µM for the entries that follow.

Fill in the blank: the reported inhibition at 10 µM of O=C1N(Cc2ncccc2F)c2ccccc2C12COc1cc3c(cc12)OCCO3 (stereo not shown) [Example 4.101] is ____. < 50%

Fill in the blank: the reported inhibition at 10 µM of COCCOc1ccc2c(c1)C1(CO2)C(=O)N(Cc2ccccn2)c2ccccc21 (stereo not shown) [Example 5.35] is ____. < 50%

Fill in the blank: the reported inhibition at 10 µM of NC(=O)c1ccc(CN2C(=O)C3(COc4cc5c(cc43)OCCO5)c3ccccc32)cc1 (stereo not shown) [Example 12.60] is ____. > 50%

Fill in the blank: the reported inhibition at 10 µM of O=C1N(Cc2cnc(N3CCOCC3)s2)c2ccccc2C12COc1cc3c(cc12)OCO3 (stereo not shown) [Example 11.2] is ____. > 50%

Fill in the blank: the reported inhibition at 10 µM of N#Cc1cc2c(cc1F)OCC21C(=O)Nc2ccccc21 (stereo not shown) [Example 3.30] is ____. < 50%

Fill in the blank: the reported inhibition at 10 µM of Cc1ccc(C)c(NC(=O)CN2C(=O)C3(COc4cc5c(cc43)CCO5)c3ccccc32)c1 (stereo not shown) [Example 12.53] is ____. < 50%

Fill in the blank: the reported inhibition at 10 µM of O=C1N(Cc2ccc(N3CCOCC3)cn2)c2ccccc2C12COc1cc3c(cc12)OCCO3 (stereo not shown) [Example 33.3] is ____. < 50%

Fill in the blank: the reported inhibition at 10 µM of O=C1N(CC2COCCO2)c2ccccc2C12COc1cc3c(cc12)OCCO3 (stereo not shown) [Example 4.45] is ____. < 50%

Fill in the blank: the reported inhibition at 10 µM of COc1cc(CN2C(=O)C3(COc4cc5c(cc43)OCCO5)c3ccccc32)cc(OC)c1 (stereo not shown) [Example 4.47] is ____. > 50%

Fill in the blank: the reported inhibition at 10 µM of NC(=O)c1cc(CN2C(=O)C3(COc4cc5c(cc43)OCO5)c3ccccc32)oc1C(F)(F)F (stereo not shown) [Example 12.58] is ____. > 50%

Fill in the blank: the reported inhibition at 10 µM of O=C1N(Cc2cccc(-c3noc(C(F)(F)F)n3)c2)c2ccccc2C12COc1cc3c(cc12)CCO3 (stereo not shown) [Example 11.28] is ____. > 50%

Fill in the blank: the reported inhibition at 10 µM of Cc1cccc(NC(=O)c2ccccc2CN2C(=O)C3(COc4cc5c(cc43)CCO5)c3ccccc32)c1 (stereo not shown) [Example 12.19] is ____. > 50%

Fill in the blank: the reported inhibition at 10 µM of N#Cc1cccc(CN2C(=O)C3(COc4cc5c(cc43)CCO5)c3ccccc32)c1 (stereo not shown) [Example 4.22] is ____. > 50%

Fill in the blank: the reported inhibition at 10 µM of O=C1N(Cc2ccc(C(F)(F)F)o2)c2ccccc2C12COc1ccc(Br)cc12 (stereo not shown) [Example 2.23] is ____. > 50%

Fill in the blank: the reported inhibition at 10 µM of COCCCCN1C(=O)C2(COc3cc4c(cc32)OCCO4)c2ccccc21 (stereo not shown) [Example 7.8] is ____. < 50%

Fill in the blank: the reported inhibition at 10 µM of O=C1N(CC2CCCCO2)c2ccccc2C12COc1cc3c(cc12)CCO3 (stereo not shown) [Example 4] is ____. < 50%

Fill in the blank: the reported inhibition at 10 µM of O=C1N(Cc2ccc3nonc3c2)c2ccccc2C12COc1cc3c(cc12)CCO3 (stereo not shown) [Example 4.27] is ____. > 50%

Fill in the blank: the reported inhibition at 10 µM of O=C1N(Cc2ccc(Cl)s2)c2cccc(Cl)c2C12COc1cc3c(cc12)OCO3 (stereo not shown) [Example 4.89] is ____. > 50%

Fill in the blank: the reported inhibition at 10 µM of O=C1N(Cc2ccnnc2)c2ccccc2C12COc1cc3c(cc12)CCO3 (stereo not shown) [Example 10] is ____. > 50%

Fill in the blank: the reported inhibition at 10 µM of O=C1N(Cc2ccccc2)c2ccccc2C12COc1cc3c(cc12)CCO3 (stereo not shown) [Example 4.14] is ____. > 50%

Fill in the blank: the reported inhibition at 10 µM of O=C1N(Cc2ncccc2C(F)(F)F)c2ccccc2[C@]12COc1cc3c(cc12)OCCO3 [Example 1.12] is ____. < 50%

Fill in the blank: the reported inhibition at 10 µM of O=C1N(Cc2cccnc2C(F)(F)F)c2ccccc2C12COc1cc3c(cc12)OCCO3 (stereo not shown) [Example 5.10] is ____. < 50%

Fill in the blank: the reported inhibition at 10 µM of COc1ccc2c(c1)OCC21C(=O)N(C[C@H]2CCCO2)c2ccccc21 (stereo partly shown) [Example 4.68] is ____. < 50%

Fill in the blank: the reported inhibition at 10 µM of O=C1N(CC2CCCCO2)c2ccccc2C12COc1cc3c(cc12)OCCO3 (stereo not shown) [Example 4.38] is ____. < 50%

Fill in the blank: the reported inhibition at 10 µM of O=C1N(C[C@H]2CCCO2)c2cccc(Br)c2C12COc1cc3c(cc12)CCO3 (stereo partly shown) [Example 4.35] is ____. > 50%

Fill in the blank: the reported inhibition at 10 µM of N#Cc1cccc(CN2C(=O)[C@@]3(COc4cc5c(cc43)OCCO5)c3ccccc32)c1 [Example 4.106] is ____. < 50%

Fill in the blank: the reported inhibition at 10 µM of COc1cc2c(cc1F)C1(CO2)C(=O)Nc2ccccc21 (stereo not shown) [Example 3.7] is ____. < 50%

Fill in the blank: the reported inhibition at 10 µM of O=C1N(Cc2ccccn2)c2ccccc2C12COc1cc3[nH]ncc3cc12 (stereo not shown) [Example 46.1] is ____. < 50%

Fill in the blank: the reported inhibition at 10 µM of O=C1N(Cc2cccnc2)c2ccccc2C12COc1cc3c(cc12)OCCO3 (stereo not shown) [Example 1.2] is ____. < 50%

Fill in the blank: the reported inhibition at 10 µM of Cc1nc2cc3c(cc2s1)C1(CO3)C(=O)N(CC2CCOCC2)c2ccccc21 (stereo not shown) [Example 4.57] is ____. > 50%

Fill in the blank: the reported inhibition at 10 µM of O=C1N(Cc2ccc(Br)cn2)c2ccccc2C12COc1cc3c(cc12)OCCO3 (stereo not shown) [Example 1.14] is ____. > 50%

Fill in the blank: the reported inhibition at 10 µM of Cc1nc2cc3c(cc2o1)C1(CO3)C(=O)N(C(c2ccccc2)c2ccccc2)c2ccccc21 (stereo not shown) [Example 2.14] is ____. < 50%

Fill in the blank: the reported inhibition at 10 µM of O=C1N(CC2CCNC2)c2ccccc2C12COc1cc3c(cc12)CCO3 (stereo not shown) [Example 11.61] is ____. < 50%

Fill in the blank: the reported inhibition at 10 µM of COc1ccc(Oc2cccc3c2C2(COc4cc5c(cc42)OCCO5)C(=O)N3C)cn1 (stereo not shown) [Example 16.82] is ____. < 50%
